Molecular target: human NaV1.5 sodium channel (Homo sapiens)
Sequence (Q14524 whole entry): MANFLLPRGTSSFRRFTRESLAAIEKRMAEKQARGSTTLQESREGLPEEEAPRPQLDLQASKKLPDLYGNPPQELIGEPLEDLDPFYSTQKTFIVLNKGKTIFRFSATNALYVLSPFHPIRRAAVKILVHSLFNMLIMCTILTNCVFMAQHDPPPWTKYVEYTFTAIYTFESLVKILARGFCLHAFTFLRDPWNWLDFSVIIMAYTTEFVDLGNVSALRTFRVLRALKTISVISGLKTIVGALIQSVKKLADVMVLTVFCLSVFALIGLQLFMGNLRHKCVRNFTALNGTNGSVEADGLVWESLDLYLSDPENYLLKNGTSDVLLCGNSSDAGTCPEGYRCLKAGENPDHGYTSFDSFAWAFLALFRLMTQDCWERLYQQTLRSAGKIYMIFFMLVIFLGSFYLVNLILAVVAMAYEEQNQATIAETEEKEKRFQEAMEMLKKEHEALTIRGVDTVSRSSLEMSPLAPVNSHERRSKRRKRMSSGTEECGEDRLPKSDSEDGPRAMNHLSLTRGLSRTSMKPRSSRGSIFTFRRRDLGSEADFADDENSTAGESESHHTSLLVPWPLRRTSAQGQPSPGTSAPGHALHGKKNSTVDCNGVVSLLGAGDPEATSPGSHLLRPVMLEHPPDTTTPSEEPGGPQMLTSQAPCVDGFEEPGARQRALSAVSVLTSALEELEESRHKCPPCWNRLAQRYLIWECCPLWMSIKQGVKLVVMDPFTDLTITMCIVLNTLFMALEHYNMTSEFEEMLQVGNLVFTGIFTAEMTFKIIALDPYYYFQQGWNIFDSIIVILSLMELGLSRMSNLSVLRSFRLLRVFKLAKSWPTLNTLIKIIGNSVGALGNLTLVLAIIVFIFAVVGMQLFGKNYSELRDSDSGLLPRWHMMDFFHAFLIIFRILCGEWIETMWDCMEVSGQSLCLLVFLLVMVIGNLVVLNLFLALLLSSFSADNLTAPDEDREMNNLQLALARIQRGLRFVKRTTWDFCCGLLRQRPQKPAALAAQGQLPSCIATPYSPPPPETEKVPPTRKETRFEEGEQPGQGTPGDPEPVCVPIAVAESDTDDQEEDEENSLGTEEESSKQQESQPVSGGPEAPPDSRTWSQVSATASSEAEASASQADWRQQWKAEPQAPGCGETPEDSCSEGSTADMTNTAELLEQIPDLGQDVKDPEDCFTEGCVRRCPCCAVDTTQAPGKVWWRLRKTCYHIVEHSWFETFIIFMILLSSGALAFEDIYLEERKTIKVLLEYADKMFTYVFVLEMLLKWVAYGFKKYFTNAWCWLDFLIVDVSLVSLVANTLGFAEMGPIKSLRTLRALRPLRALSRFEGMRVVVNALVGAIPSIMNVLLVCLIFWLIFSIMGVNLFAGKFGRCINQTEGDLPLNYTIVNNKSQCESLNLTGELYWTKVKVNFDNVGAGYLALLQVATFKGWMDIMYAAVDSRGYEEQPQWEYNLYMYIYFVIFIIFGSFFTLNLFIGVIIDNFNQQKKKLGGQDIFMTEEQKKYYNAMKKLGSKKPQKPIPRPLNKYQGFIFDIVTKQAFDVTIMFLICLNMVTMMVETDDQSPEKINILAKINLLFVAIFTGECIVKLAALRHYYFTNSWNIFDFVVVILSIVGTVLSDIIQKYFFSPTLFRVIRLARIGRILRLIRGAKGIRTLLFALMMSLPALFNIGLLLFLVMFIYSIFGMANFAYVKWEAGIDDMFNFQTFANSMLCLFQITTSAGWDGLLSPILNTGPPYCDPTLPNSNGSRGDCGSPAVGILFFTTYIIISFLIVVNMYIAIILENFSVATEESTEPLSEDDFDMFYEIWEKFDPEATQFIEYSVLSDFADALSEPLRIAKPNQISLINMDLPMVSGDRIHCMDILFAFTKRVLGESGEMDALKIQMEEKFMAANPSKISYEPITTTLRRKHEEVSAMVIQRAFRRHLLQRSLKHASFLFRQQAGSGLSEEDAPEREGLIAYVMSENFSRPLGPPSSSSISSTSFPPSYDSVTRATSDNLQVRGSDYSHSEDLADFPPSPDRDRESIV
Assay: cell-based
Conditions: IC50 block of late NaV1.5 current, −15 mV epoch; mean ± SEM
READOUT: pIC50
// scale note: pIC50 = -log10(conc_M); give the bare number

Short answer for Nc1nnc(-c2cccc(Cl)c2Cl)c(N)n1 [lamotrigine, Lamotrigine] : pIC50 was 4.76

---

Target: human NaV1.5 sodium channel (Homo sapiens)
Assay: cell-based
Conditions: IC50 block of late NaV1.5 current, ramp epoch; mean ± SEM
READOUT: IC50 (µM)
Respond with the bare value in µM.

IC50 value, target or system human NaV1.5 sodium channel (Homo sapiens), for Nc1nnc(-c2cccc(Cl)c2Cl)c(N)n1 [lamotrigine, Lamotrigine] : 12.1
